# assay.remarks: In vivo absorption of 4-ASA (serum and urine) in healthy volunteers
# reported.conditions: human, serum, topical or ocular, 25 mg
measured.quantity: concentration at 0.25 h

molecule | reported.value
Nc1ccc(C(=O)O)c(O)c1 [Example 4-ASA, 4-aminosalicylic acid] | 24 ng/mL

* * *

# assay.remarks: In vivo dermal absorption of 5-ASA (serum and urine) in healthy volunteers
# reported.conditions: human, in vivo, topical or ocular
measured.quantity: concentration at 1.5 h (ng/mL)

molecule | reported.value
Nc1ccc(O)c(C(=O)O)c1 [Example 5-ASA, 5-aminosalicylic acid, reference compound] | 7.1

* * *

# assay.remarks: In vivo dermal absorption of 5-ASA (serum and urine) in healthy volunteers
# reported.conditions: human, in vivo, topical or ocular

molecule | concentration at 4 h (ng/mL)
Nc1ccc(O)c(C(=O)O)c1 [Example 5-ASA, 5-aminosalicylic acid, reference compound] | 17.2

All figures here come from patent US4933330A.
